System: A431 human epidermoid carcinoma cells
assay.protocol: Cell proliferation assay (MTT), A431
Type: cell-based
protocol.conditions: compounds 0-100 μM, 72 hours, means ± SEM, NA = not active at 100 μM concentration
Description: A431 (2×10^4 cells/mL) were incubated in […] DMEM culture medium (BioWhittaker, Vallensbaek, DK). Differently, 8701-BC (2×10^4 cells/mL) were incubated in 100 μL RPMI 1640 culture medium (BioWhittaker, Vallensbaek, DK). […] Following 72 hours, cells were treated with 10 μL of the 3-(4,5-dimethylthiazol-2-yl)-[…] (MTT) solution (5 mg/mL). […] The microplates were read using an ELISA plate reader at 570 nm with a reference wavelength of 630 nm.
property.label: IC50 (µM)

- molecule: "CCCNc1ncnc2c1cnn2C=Cc1ccccc1"
  property.label: "IC50"
  reported: 61.2
- molecule: "CSc1nc(NC2CCCCC2)c2cnn(CC(Cl)c3ccccc3)c2n1 (stereo not drawn)"
  property.label: "IC50"
  reported: 43.8
- molecule: "CSc1nc(NCCc2ccccc2)c2cnn(CC(Cl)c3ccccc3)c2n1 (stereo not drawn)"
  property.label: "IC50"
  reported: 27.1
- molecule: "CSc1nc(NCc2ccccc2)c2cnn(CC(Cl)c3ccccc3)c2n1 (stereo not drawn)"
  property.label: "IC50"
  reported: 24.6

1 = BrC(Cn1ncc2c(NC3CCCCC3)ncnc21)c1ccccc1 (stereo not drawn)
2 = CCSc1nc(N2CCOCC2)c2cnn(CC(Cl)c3ccccc3)c2n1 (stereo not drawn)
Query: I'm curious, which of these has a smaller IC50 number: 1 or 2 ? The response must carry the label of the picked entry.
Reply: 1
(1: 28.2 µM, 2: 42.3 µM)

* * *

Test system: 8701-BC breast cancer cells
assay.protocol: Cell proliferation assay (MTT), 8701-BC
Type: cell-based, human
protocol.conditions: exponentially growing 8701-BC cells, compounds 0-100 μM, 72 hours, means ± SEM, NA = not active at 100 μM concentration
pIC50: −log10 of the molar value.
property.label: pIC50

# annotated cases, reported pIC50 shown
- compound: "CSc1nc(NCc2ccccc2)c2cnn(CC(Cl)c3ccccc3)c2n1 (centres unmarked)"
  target.or.test.system: "8701-BC breast cancer cells"
  pIC50: 4.27
- compound: "C(=Cn1ncc2c(N3CCCC3)ncnc21)c1ccccc1"
  target.or.test.system: "8701-BC breast cancer cells"
  pIC50: 4.30
- compound: "CCCNc1nc(SC)nc2c1cnn2CC(Cl)c1ccccc1 (centres unmarked)"
  target.or.test.system: "8701-BC breast cancer cells"
  pIC50: 4.19
- compound: "CSc1nc(NC2CCCCC2)c2cnn(CC(Cl)c3ccccc3)c2n1 (centres unmarked)"
  target.or.test.system: "8701-BC breast cancer cells"
  pIC50: 4.45
- compound: "CSc1nc(N2CCCCCC2)c2cnn(CC(Cl)c3ccccc3)c2n1 (centres unmarked)"
  target.or.test.system: "8701-BC breast cancer cells"
  pIC50: 4.26

1 = CCCCNc1nc(SCC)nc2c1cnn2CC(Cl)c1ccccc1 (centres unmarked)
2 = C(=Cn1ncc2c(NCCc3ccccc3)ncnc21)c1ccccc1
Query: Of the two listed items, 1 and 2 , which carries the larger pIC50 figure? The response must carry the label of the picked entry.
Reply: 1

A = C(=Cn1ncc2c(NC3CCCCC3)ncnc21)c1ccccc1
B = CCCNc1nc(SCC)nc2c1cnn2CC(Cl)c1ccccc1 (centres unmarked)
Query: I'm curious, which of these has a smaller pIC50 number: A or B ? The response must carry the label of the picked entry.
Reply: A
(A: 4.30, B: 4.54)

* * *

System: A431 human epidermoid carcinoma cells
assay.protocol: Cell proliferation assay (MTT), A431
Format: cell-based
protocol.conditions: compounds 0-100 μM, 72 hours, means ± SEM, NA = not active at 100 μM concentration
property.label: IC50 (µM)

# annotated cases, reported IC50 shown
- compound: "C(=Cn1ncc2c(N3CCOCC3)ncnc21)c1ccccc1 [Compound 4b]"
  reading.unit: "µM"
  IC50: 59.2
- compound: "CCCNc1nc(SCC)nc2c1cnn2CC(Cl)c1ccccc1 (centres unmarked) [Compound 2d]"
  reading.unit: "µM"
  IC50: 79.4

A = CSc1nc(N2CCCC2)c2cnn(CC(Cl)c3ccccc3)c2n1 (centres unmarked) [Compound 1i]
B = OC(Cn1ncc2c(N3CCCCC3)ncnc21)c1ccccc1 (centres unmarked) [Compound 3c]
Query: Of the two listed items, A and B , which carries the larger IC50 figure? The response must carry the label of the picked entry.
Reply: A
(A: 32.3 µM, B: 13.4 µM)

I = CSc1nc(N2CCCCC2)c2cnn(C=Cc3ccccc3)c2n1 [Compound 4m]
II = CCOCCNc1nc(SC)nc2c1cnn2CC(Cl)c1ccccc1 (centres unmarked) [Compound 1c]
Query: Of the two listed items, I and II , which carries the larger IC50 figure? The response must carry the label of the picked entry.
Reply: I
(I: 54.1 µM, II: 32.4 µM)

I = CSc1nc(N2CCOCC2)c2cnn(C=Cc3ccccc3)c2n1 [Compound 4n]
II = CCSc1nc(N2CCCC2)c2cnn(CC(Cl)c3ccccc3)c2n1 (centres unmarked) [Compound 2e]
Query: I'm curious, which of these has a smaller IC50 number: I or II ? The response must carry the label of the picked entry.
Reply: I

A = CCCCNc1nc(SCC)nc2c1cnn2CC(Cl)c1ccccc1 (centres unmarked) [Compound 2c]
B = CCN(CC)c1nc(SC)nc2c1cnn2CC(Cl)c1ccccc1 (centres unmarked) [Compound 1h]
Query: I'm curious, which of these has a smaller IC50 number: A or B ? The response must carry the label of the picked entry.
Reply: A
(A: 40.2 µM, B: 70.2 µM)

* * *

Tested on: A431 human epidermoid carcinoma cells
assay.protocol: Cell proliferation assay (MTT), A431
Format: cell-based
protocol.conditions: compounds 0-100 μM, 72 hours, means ± SEM, NA = not active at 100 μM concentration
property.label: IC50 (µM)

- compound: "C(=Cn1ncc2c(N3CCCCCC3)ncnc21)c1ccccc1"
  reading.unit: "µM"
  IC50: 43.6
- compound: "COc1cc2ncnc(Nc3cccc(Cl)c3)c2cc1OC [AG1478, reference compound]"
  reading.unit: "µM"
  IC50: 20.2
- compound: "C(=Cn1ncc2c(N3CCCC3)ncnc21)c1ccccc1"
  reading.unit: "µM"
  IC50: 63.1

1 = CCCNc1ncnc2c1cnn2CC(O)c1ccccc1 (stereo not shown)
2 = C(=Cn1ncc2c(NCCc3ccccc3)ncnc21)c1ccccc1
Query: I'm curious, which of these has a smaller IC50 number: 1 or 2 ? The response must carry the label of the picked entry.
Reply: 2
(2: 15 µM, 1: 91.2 µM)

1 = OC(Cn1ncc2c(N3CCOCC3)ncnc21)c1ccccc1 (stereo not shown)
2 = OC(Cn1ncc2c(NCc3ccccc3)ncnc21)c1ccccc1 (stereo not shown)
3 = CSc1nc(N2CCCCC2)c2cnn(CC(Cl)c3ccccc3)c2n1 (stereo not shown)
Query: Task field, ranking: reported IC50, descending order. List the labels according to the requested ordering.
Reply: 1, 3, 2

* * *

Tested on: 8701-BC breast cancer cells
assay.protocol: Cell proliferation assay (MTT), 8701-BC
Assay type: cell-based, human
protocol.conditions: exponentially growing 8701-BC cells, compounds 0-100 μM, 72 hours, means ± SEM, NA = not active at 100 μM concentration
property.label: IC50 (µM)

# annotated cases, reported IC50 shown
- compound: "CCOCCNc1nc(SC)nc2c1cnn2CC(Cl)c1ccccc1 (stereo not shown) [Compound 1c]"
  IC50 (µM): 59.8
- compound: "CCSc1nc(N2CCCC2)c2cnn(CC(Cl)c3ccccc3)c2n1 (stereo not shown) [Compound 2e]"
  IC50 (µM): 72.1
- compound: "CCCCNc1nc(SC)nc2c1cnn2CC(Cl)c1ccccc1 (stereo not shown) [Compound 1d]"
  IC50 (µM): 63.8

P = OC(Cn1ncc2c(NCc3ccc(F)cc3)ncnc21)c1ccccc1 (stereo not shown) [Compound 3g]
Q = CCN(CC)c1nc(SC)nc2c1cnn2CC(Cl)c1ccccc1 (stereo not shown) [Compound 1h]
R = CSc1nc(NCCc2ccccc2)c2cnn(CC(Cl)c3ccccc3)c2n1 (stereo not shown) [Compound 1f]
Query: With regard to IC50, arrange the entries in ascending order, please. List the labels according to the requested ordering.
Reply: R, P, Q
(R: 31.2 µM, P: 54.4 µM, Q: 86.9 µM)

* * *

Test system: K562 cells
assay.protocol: Cell proliferation assay, K562
Assay type: cell-based, human
protocol.conditions: compounds 0-100 μM, means ± SEM
pIC50: −log10 of the molar value.
property.label: pIC50

# annotated cases, reported pIC50 shown
- compound: "CCCCNc1ncnc2c1cnn2CC(Br)c1ccccc1 (stereo not shown)"
  pIC50: 4.46
- compound: "BrC(Cn1ncc2c(NC3CCCCC3)ncnc21)c1ccccc1 (stereo not shown)"
  pIC50: 4.42

A = CCCCNc1nc(SCC)nc2c1cnn2CC(Cl)c1ccccc1 (stereo not shown)
B = CCSc1nc(N2CCOCC2)c2cnn(C=Cc3ccccc3)c2n1
Query: Of the two listed items, A and B , which carries the larger pIC50 figure? The response must carry the label of the picked entry.
Reply: A
(A: 4.56, B: 4.12)
